- SUBJECT_OF_TEST: SMARCA4-HiBiT HeLa cells (protein which is expressed from the SMARCA4 gene) (Homo sapiens, UniProt P51532)
- Construct: protein which is expressed from the SMARCA2 and SMARCA4 genes; host or cells: HeLa (SMARCA4-HiBiT engineered line)
- Sequence (P51532 whole entry): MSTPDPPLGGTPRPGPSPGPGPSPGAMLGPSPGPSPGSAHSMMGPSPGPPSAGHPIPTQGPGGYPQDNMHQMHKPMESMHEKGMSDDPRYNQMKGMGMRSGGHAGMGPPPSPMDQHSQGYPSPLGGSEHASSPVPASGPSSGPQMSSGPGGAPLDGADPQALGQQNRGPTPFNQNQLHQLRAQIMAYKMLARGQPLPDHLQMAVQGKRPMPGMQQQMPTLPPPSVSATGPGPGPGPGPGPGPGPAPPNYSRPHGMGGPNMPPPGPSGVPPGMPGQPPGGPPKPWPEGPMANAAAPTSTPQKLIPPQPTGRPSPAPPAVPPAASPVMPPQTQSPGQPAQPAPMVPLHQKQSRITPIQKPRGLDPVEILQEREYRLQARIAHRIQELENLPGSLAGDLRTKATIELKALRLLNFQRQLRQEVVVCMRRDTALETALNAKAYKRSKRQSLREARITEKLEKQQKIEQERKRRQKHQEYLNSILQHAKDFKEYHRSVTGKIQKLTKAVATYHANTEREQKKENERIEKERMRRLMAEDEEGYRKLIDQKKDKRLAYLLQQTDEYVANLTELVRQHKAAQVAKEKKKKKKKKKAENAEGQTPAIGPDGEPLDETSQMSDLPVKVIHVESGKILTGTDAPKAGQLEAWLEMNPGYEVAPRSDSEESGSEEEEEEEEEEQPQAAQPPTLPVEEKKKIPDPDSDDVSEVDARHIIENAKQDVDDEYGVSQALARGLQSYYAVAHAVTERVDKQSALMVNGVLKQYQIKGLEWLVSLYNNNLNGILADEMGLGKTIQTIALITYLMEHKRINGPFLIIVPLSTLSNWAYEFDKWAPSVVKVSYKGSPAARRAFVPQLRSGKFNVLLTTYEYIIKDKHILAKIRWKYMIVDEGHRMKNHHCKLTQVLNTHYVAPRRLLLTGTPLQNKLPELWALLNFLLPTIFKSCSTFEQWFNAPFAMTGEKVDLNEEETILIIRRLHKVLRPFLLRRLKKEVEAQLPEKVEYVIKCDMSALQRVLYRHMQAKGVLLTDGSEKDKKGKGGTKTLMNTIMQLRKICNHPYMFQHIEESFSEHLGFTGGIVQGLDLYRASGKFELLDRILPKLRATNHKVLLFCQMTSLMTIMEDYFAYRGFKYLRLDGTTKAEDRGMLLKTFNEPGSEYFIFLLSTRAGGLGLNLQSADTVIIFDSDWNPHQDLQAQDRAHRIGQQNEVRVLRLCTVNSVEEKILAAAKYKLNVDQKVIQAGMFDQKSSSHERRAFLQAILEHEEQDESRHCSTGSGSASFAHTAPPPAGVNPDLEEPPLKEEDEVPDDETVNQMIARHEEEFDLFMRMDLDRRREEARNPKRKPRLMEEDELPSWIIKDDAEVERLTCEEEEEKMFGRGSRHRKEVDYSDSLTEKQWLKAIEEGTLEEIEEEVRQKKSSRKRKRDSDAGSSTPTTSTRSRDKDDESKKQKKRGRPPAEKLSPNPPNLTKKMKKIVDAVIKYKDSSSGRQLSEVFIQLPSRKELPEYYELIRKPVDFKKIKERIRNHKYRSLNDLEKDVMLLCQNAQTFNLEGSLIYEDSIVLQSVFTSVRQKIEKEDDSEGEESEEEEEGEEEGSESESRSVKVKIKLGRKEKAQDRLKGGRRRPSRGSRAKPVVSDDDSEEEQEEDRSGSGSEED
- ASSAY: SMARCA4 degradation assay (HiBiT-fusion HeLa cell line, 24 h, luminescence)
- Type: cell-based
- Source text: SMARCA2 and SMARCA4 Degradation Assay Degradation of protein which is expressed from the SMARCA2 and SMARCA4 genes was monitored using engineered HiBiT-fusion HeLa cell lines from Promega. […] 24-hours post-treatment, protein levels were quantified with the addition of HiBiT lytic buffer, LgBiT protein, and HiBiT substrate, according to manufacturer's specifications. […]
Kindly state DC50 for each of the entries shown.

>>> result("CC1(F)CCN(CC#Cc2nccc(N3CCC4(CC3)CCN(c3cc(-c5ccccc5O)nnc3N)C4)n2)C1 (stereo not shown) [Compound P-195]")
"0.05 to 0.5 µM"

Please report DC50 for every entry that follows.
1. C[C@@H]1CCN(c2cc(-c3ccccc3O)nnc2N)CCN1c1ccnc(C#CCN2CC[C@H](F)C2)n1 [Compound P-244]
2. Nc1nnc(-c2ccccc2O)cc1N1CCCN(c2ccnc(C#CCNC3CCOCC3)n2)CC1 [Compound P-300]
3. C[C@@H]1CCN(c2cc(-c3ccccc3O)nnc2N)CCN1c1ccnc(/C=C/CN2CCOCC2)n1 [Compound P-167]
4. Nc1nnc(-c2ccccc2O)cc1N1C2CCC1CN(c1ccnc(C#CCN3CC4CC3C4)n1)C2 [Compound P-182]
5. Nc1nnc(-c2ccccc2O)cc1N1C2CCC1CN(c1ccnc(C#CCCNC(=O)c3cc4ncccn4n3)n1)C2 [Compound P-22]
6. CC1(C)COCCN1CC#Cc1nccc(N2CCCN(c3cc(-c4ccccc4O)nnc3N)CC2)n1 [Compound P-317]

Outgoing:
["< 0.05 µM", "0.05 to 0.5 µM", "< 0.05 µM", "0.05 to 0.5 µM", "0.5 to 5 µM", "0.5 to 5 µM"]

* * *

- SUBJECT_OF_TEST: SMARCA2-HiBiT HeLa cells (protein which is expressed from the SMARCA2 gene) (Homo sapiens, UniProt P51531)
- Construct: protein which is expressed from the SMARCA2 and SMARCA4 genes; host or cells: HeLa (SMARCA2-HiBiT engineered line)
- Sequence (P51531 whole entry): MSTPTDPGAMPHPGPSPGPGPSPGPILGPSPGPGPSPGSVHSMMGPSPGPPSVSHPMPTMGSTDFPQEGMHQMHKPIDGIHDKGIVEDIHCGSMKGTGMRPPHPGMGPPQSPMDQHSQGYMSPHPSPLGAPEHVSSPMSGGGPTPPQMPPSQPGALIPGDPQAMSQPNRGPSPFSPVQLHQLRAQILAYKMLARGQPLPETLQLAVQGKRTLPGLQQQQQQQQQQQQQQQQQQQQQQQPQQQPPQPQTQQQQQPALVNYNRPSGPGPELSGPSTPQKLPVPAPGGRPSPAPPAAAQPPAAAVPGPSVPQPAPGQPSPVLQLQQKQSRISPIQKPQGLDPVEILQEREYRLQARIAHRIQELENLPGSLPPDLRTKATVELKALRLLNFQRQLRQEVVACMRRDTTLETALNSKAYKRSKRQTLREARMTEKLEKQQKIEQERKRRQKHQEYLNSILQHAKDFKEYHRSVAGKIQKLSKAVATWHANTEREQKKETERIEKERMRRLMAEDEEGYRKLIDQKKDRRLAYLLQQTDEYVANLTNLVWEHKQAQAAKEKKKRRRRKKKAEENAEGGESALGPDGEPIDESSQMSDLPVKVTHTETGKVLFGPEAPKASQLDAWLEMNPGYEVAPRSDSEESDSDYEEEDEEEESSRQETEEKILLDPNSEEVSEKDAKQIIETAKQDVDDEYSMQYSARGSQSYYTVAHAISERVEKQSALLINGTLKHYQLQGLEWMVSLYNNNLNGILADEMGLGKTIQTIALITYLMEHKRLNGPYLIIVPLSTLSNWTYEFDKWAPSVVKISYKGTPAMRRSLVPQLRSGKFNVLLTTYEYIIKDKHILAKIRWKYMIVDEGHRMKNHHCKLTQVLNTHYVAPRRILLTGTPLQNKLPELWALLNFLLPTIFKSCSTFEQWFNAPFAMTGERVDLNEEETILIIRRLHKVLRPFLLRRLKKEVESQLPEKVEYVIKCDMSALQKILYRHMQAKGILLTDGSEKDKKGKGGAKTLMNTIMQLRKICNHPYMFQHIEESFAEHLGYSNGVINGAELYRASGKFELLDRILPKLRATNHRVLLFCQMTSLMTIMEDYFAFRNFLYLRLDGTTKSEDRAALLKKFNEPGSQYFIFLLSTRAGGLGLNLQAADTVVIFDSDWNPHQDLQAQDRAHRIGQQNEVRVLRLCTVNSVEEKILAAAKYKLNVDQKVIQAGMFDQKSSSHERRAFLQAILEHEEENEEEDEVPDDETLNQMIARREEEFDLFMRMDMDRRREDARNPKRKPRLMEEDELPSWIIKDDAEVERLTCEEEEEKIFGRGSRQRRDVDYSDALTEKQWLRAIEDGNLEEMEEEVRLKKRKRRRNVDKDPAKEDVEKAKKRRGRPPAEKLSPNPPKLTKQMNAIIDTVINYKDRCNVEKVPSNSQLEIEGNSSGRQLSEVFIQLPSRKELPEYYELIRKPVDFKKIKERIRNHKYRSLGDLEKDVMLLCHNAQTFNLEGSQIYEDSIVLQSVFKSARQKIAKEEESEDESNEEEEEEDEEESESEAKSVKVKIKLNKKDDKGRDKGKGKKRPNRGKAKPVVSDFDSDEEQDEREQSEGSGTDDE
- ASSAY: SMARCA2 degradation assay (HiBiT-fusion HeLa cell line, 24 h, luminescence)
- Assay type: cell-based
- CONDITION_DETAILS: @ 1 μM
ASSAY_METRIC: SMARCA2 % Degradation @ 1 μM

>>> result("CN(C)CC#Cc1nccc(N2C[C@H]3CC[C@@H](C2)[C@H]3Oc2cc(-c3ccccc3O)nnc2N)n1")
"++ (++=30-70%)"
>>> result("COC[C@H](C)NCC#Cc1nccc(N2CCCN(c3cc(-c4ccccc4O)nnc3N)CC2)n1")
"++ (++=30-70%)"
>>> result("C[C@@H]1CCN(c2cc(-c3ccccc3O)nnc2N)CCN1c1ccnc(C#CCN2[C@H](C)C[C@@H]2C)n1")
"++ (++=30-70%)"
>>> result("CC1CN(c2ccnc(C#CCNC(=O)c3cc4ncccn4n3)n2)CCN(c2cc(-c3ccccc3O)nnc2N)C1 (centres unmarked)")
"+++ (+++=>70%)"
>>> result("CN(C)CC#Cc1nccc(N2CC3CC(Oc4cc(-c5ccccc5O)nnc4N)CC3C2)n1 (centres unmarked)")
"+++ (+++=>70%)"

Hi! Can you tell me SMARCA2 % Degradation @ 1 μM for each of these compounds?
1. Nc1nnc(-c2ccccc2O)cc1N1CC2CC1CN(c1ccnc(C#CCNC(=O)c3cc4ncccn4n3)n1)C2 (centres unmarked)
2. Nc1nnc(-c2ccccc2O)cc1OC1CC2CN(c3ccnc(C#CCN4CCOCC4)n3)CC2C1 (centres unmarked)
3. C[C@@H]1CCN(c2cc(-c3ccccc3O)nnc2N)CCN1c1ccnc(C#C[C@H](O)C2CC2)n1
4. C[C@@H]1COC[C@H](C)N1CC#Cc1nccc(N2CCCN(c3cc(-c4ccccc4O)nnc3N)CC2)n1
5. C[C@@H]1CCN(c2cc(-c3ccccc3O)nnc2N)CCN1c1ccnc(C#CCN2[C@@H]3CC[C@H]2C[C@@H](O)C3)n1
6. C[C@@H]1CCN(c2cc(-c3ccccc3O)nnc2N)CCN1c1ccnc(C#CC2CN(CC(F)(F)F)C2)n1

Outgoing:
1: ++ (++=30-70%); 2: +++ (+++=>70%); 3: +++ (+++=>70%); 4: ++ (++=30-70%); 5: +++ (+++=>70%); 6: +++ (+++=>70%)

// each listed compound needs a value for SMARCA2 % Degradation @ 1 μM
1. CC(C)(C)OC(=O)NC1CCN(CC#Cc2nccc(N3C4CCC3CN(c3cnnc(-c5ccccc5O)c3)C4)n2)CC1
2. Nc1nnc(-c2ccccc2O)cc1N1CCN(c2ccnc(C#CCNC(=O)c3ccc4ccccc4n3)n2)CC1

Outgoing:
["++ (++=30-70%)", "++ (++=30-70%)"]
